# z-score per record follows
Assay: modulators of HCV replicon luciferase signal, primary screen, HCV replication inhibitor project, Huh7 cells, luciferase reporter (AID 1109);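 further: huh7 hepatoma cells harbouring a luciferase neomycin HCV replicon reporter; luciferase luminescence as measure of HCV replicon replication; test concentration not given here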
Settings: 48 h, higher = more signal

compound	z-score
COC(=O)[C@@]1(Cc2ccccc2)[C@H]2c3cc(C(=O)N4CCCC4)n(Cc4cc(F)cc5c4OCOC5)c3C[C@H]2CN1C(=O)c1ccccc1	-0.592
O=C1c2ccccc2[C@@]2(Cc3ccccc3N(C3CC3)C2=O)[C@H](c2ccc(CO)cc2)N1C1CCCCC1	0.056
C=CC[C@H](OC(=O)Nc1ccc(OC)cc1)c1ccc(O)c2ccccc12	-3.63
C=C[C@@H](COC(C)=O)NS(=O)(=O)c1ccc(Br)cc1	-0.178
CCOC(=O)[C@@H]1[C@@H]2C(=O)N(CC)C(=O)[C@@H]2C[C@@H]1Sc1ccccc1	-1.33
COC(=O)[C@H](Cc1ccccc1)N1CC(/C=C/C2CC2)=C[C@@H]1[C@@H](O)Cc1ccccc1	-1.33
COCCOC(=O)N1C(=O)[C@@]2(c3cc(C#CCNC(N)=O)ccc31)[C@H](C(=O)N1CCCCCCC1)[C@H]1C(=O)O[C@H](c3ccccc3)[C@H](c3ccccc3)N1[C@@H]2c1ccc(O)cc1	-1.07
COc1ccc([Si](C)(C)[C@H]2[C@H](CC(=O)N3Cc4ccccc4C[C@H]3CO)O[C@@]3(C(=O)N(Cc4cccc(N5CCCCC5=O)c4)c4ccccc43)[C@@H]2C)cc1	-3.77
CN1C(=O)[C@@]2(CCS(=O)(=O)c3ccccc3)N=C(c3ccc(OCCCO)cc3)O[C@H]2c2ccccc21	-1.55
C=CCOC(=O)[C@@H]1[C@H]2C(=O)O[C@H](c3ccccc3)[C@H](c3ccccc3)N2[C@H](c2ccc(OCCOC(=O)[C@H]3C[C@H]4C(=O)N[C@@H](CCCC[N+](C)(C)C)C(=O)N4[C@H]3c3ccc(O)cc3)cc2)[C@@]12C(=O)Nc1ccc(I)cc12	-0.908
O=C1OC[C@@H](c2ccccc2)N2CC(/C=C/c3ccccc3)=CC12 (some centres undefined)	-0.557
C[C@@H](OCc1ccccc1)C1NC(=O)[C@@]23C(=O)N[C@@H](Cc4ccccc4)C2[C@H](C)[C@@]2(C)O[C@H]2C3/C=C/C/C=C\CNC(=O)CNC1=O (some centres undefined)	-0.712
C=CCNC(=O)[C@H]1[C@@H]2C(=O)O[C@@H](c3ccccc3)[C@@H](c3ccccc3)N2[C@@H](c2ccccc2OCCO)[C@]12C(=O)N(C(=O)OCCOC)c1ccc(C#CC3=CCCCC3)cc12	-3.34
Cc1c(NC(=O)/C(C#N)=C/C=C/c2ccc(N(C)C)cc2)c(=O)n(-c2ccccc2)n1C	-0.754

* * *

Assay: P. aeruginosa biofilm formation inhibitors, primary screen, PAO1 strain, BacTiter-Glo luminescence, LB-PBS (AID 1144)
Details: 12 h, higher = more signal
Class field: derived from z-score; ranges bin 1 (below -0.4), bin 2 (-0.4 to below 0.2), bin 3 (0.2 or more)

compound	qualitative label
CCOC(=O)[C@H]1C/C=C/C[C@H](C(=O)OCC)C(=O)O[C@H]2[C@@H](OC)O[C@H](CO)[C@@H](OC(=O)CCc3ccccc3)[C@@H]2OC1=O	bin 1
COC(=O)[C@@]1(Cc2ccc(OC)cc2)[C@H]2c3cc(C(=O)N(C)C)n(Cc4ccccc4)c3C[C@H]2CN1C(=O)c1ccccc1	bin 1
O=C(O)[C@H](Cc1ccccc1)n1cc(-c2ccccn2)nn1	bin 2
CN1C(=O)C2C=CC(C(O)C3CCCCC3)N(N3CCCCC3)C2C1=O (stereo not drawn)	bin 1
C=CC[C@H](OC(=O)Nc1ccc(OC)cc1)c1ccc(O)c2ccccc12	bin 1
C=CCOC(=O)[C@H]1[C@@H]2C(=O)O[C@@H](c3ccccc3)[C@@H](c3ccccc3)N2[C@@H](c2ccc(OCCOC(=O)[C@H]3C[C@H]4C(=O)N[C@@H](CCCC[N+](C)(C)C)C(=O)N4[C@H]3c3cccc(OCCO)c3)cc2)[C@]12C(=O)Nc1ccc(I)cc12	bin 1
CC(C)C(=C=CC[C@@H](O)c1ccccc1OCCO)C[C@@H](O)COCc1ccccc1	bin 2
O=C(CS)NCCCCCCNC(=O)[C@@H]1C[C@@H]2C(=O)N3CCC[C@H]3C(=O)N2[C@@H]1c1cccc(OCCO)c1	bin 1
C=C(CCCC)C(=O)CC[C@@H](OC(=O)c1ccccc1-c1ccccc1C(=O)O)c1cccc(OCCO)c1	bin 2
CC(C)(C)N1CC=CC23O[C@@H]4C=CCOC(=O)[C@@H]4[C@H]2C(=O)N(CCCO)[C@@H]3C1=O (stereo partly drawn)	bin 2
CC[C@@H]1[C@H]2C3C(=O)N(CC)C(=O)C3CC(=O)[C@H]2[C@H](c2ccc(C)cc2)N1S(=O)(=O)c1ccc(C)cc1 (stereo partly drawn)	bin 3
CCOC(=O)C[C@H]1[C@H](OC(=O)c2ccc(C(=O)c3ccccc3)cc2)[C@@H](NC(=O)c2ccc3ccccc3c2)c2cc(OCCCO)ccc2N1C(=O)c1ccccc1	bin 2
NC(=O)N1C(=O)C2C(C1=O)C1C=C(c3ccc(CO)cc3)C2C(C2CC2)N1Cc1sc2ccccc2c1Cl (stereo not drawn)	bin 3
COc1c(C)cc(-c2cc3c(c(Cc4ccccc4)n2)[Si](C(C)C)(C(C)C)OC3)cc1C	bin 3
CCCCC(CC)C(O)C1C=CC2C(=O)N(c3ccccc3)C(=O)C2N1Nc1ccc([N+](=O)[O-])cc1 (stereo not drawn)	bin 2
C=CC[C@@H](OC(=O)Nc1ccc(OC)cc1)c1ccc(OCCO)cc1	bin 1
CC(C)N1CC=CC23O[C@@H]4C=CCOC(=O)[C@@H]4[C@H]2C(=O)N(C(C)CO)[C@@H]3C1=O (stereo partly drawn)	bin 3
COC(=O)[C@]1(CCS(=O)(=O)c2ccccc2)N=C(c2ccc(OCCCO)cc2)O[C@@H]1c1ccccc1CN=[N+]=[N-]	bin 2
CN1C(=O)C2C=CC(C(O)c3c(F)cccc3Cl)N(Nc3ccccc3)C2C1=O (stereo not drawn)	bin 3
COc1ccc([Si](C)(C)[C@H]2[C@H](CCn3cc([C@H](O)c4ccccc4)nn3)O[C@@]3(C(=O)N(Cc4cccc(N5C(=O)c6cccc7cccc5c67)c4)c4ccccc43)[C@@H]2C)cc1	bin 3
COc1cc2c(cc1OC)CN(C(=O)[C@H]1[C@@H]3C(=O)O[C@@H](c4ccccc4)[C@@H](c4ccccc4)N3[C@@H](c3ccc(OCCO)cc3)[C@]13C(=O)Nc1ccc(C#CCCO)cc13)CC2	bin 2
COC(=O)[C@@]1(Cc2ccccc2)[C@H]2c3cc(C(=O)N4CCCC4)n(C[C@H](O)CO)c3C[C@H]2CN1C(=O)c1ccccc1	bin 2
O=C1O[C@H](c2ccccc2)[C@H](c2ccccc2)N2[C@H]1[C@@H](C(=O)O)[C@]1(C(=O)Nc3ccccc31)[C@H]2c1ccc(O)cc1	bin 2
C=CCOC(=O)[C@@H]1[C@H]2C(=O)O[C@H](c3ccccc3)[C@H](c3ccccc3)N2[C@H](c2ccc(OCCOC(=O)[C@H]3C[C@H]4C(=O)N[C@@H](CC(C)C)C(=O)N4[C@H]3c3ccc(O)cc3)cc2)[C@@]12C(=O)Nc1ccc(I)cc12	bin 2
O=C1OC[C@@H](c2ccccc2)N2CC(/C=C/c3ccccc3)=CC12 (stereo partly drawn)	bin 3
CC(C)N1C(=O)[C@@]2(c3ccc([N+](=O)[O-])cc3)CC(=O)N(C3CCCCC3)[C@@H]2c2ccc(CO)cc21	bin 1
CC=CC(O)C1C=CC2C(=O)N(C)C(=O)C2N1Nc1ccc([N+](=O)[O-])cc1[N+](=O)[O-] (stereo not drawn)	bin 1
CN(C)CCCCNC(=O)[C@H]1C[C@H]2C(=O)N[C@@H](CCCCN(C)C)C(=O)N2[C@H]1c1cccc(OCCO)c1	bin 3

* * *

z-score for assorted molecules
Assay: HepG2 liver cancer cell viability effects, profiling panel, resazurin fluorescence, 24 h, PK04 Diversity Set (AID 1172); further: test concentration not given here
Conditions: higher = more signal

molecule	z-score
CCCCN1CC=CC23O[C@@H]4/C=C\CCC(C)OC(=O)C4[C@H]2C(=O)N(CCCCCCO)[C@@H]3C1=O (some centres undefined)	0.634
COc1ccc([Si](C)(C)[C@H]2[C@H](CCn3cc([C@H](O)c4ccccc4)nn3)O[C@@]3(C(=O)N(Cc4ccc(N5CCC5=O)cc4)c4ccccc43)[C@@H]2C)cc1	-0.225
CC1CC/C=C\[C@H]2OC34C=CCN(c5ccc6ccccc6c5)C(=O)[C@H]3N(C(CO)C(C)C)C(=O)[C@@H]4C2C(=O)O1 (some centres undefined)	-0.452
NCCCCCNC(=O)[C@@H]1C[C@@H]2C(=O)N[C@@H](CCCCN)C(=O)N2[C@@H]1c1cccc(OCCO)c1	1.03
[N-]=[N+]=NCc1ccccc1[C@H]1OC(c2ccc(OCCCO)cc2)=N[C@@]1(CCS(=O)(=O)c1ccccc1)C(N)=O	0.437
O=C(CS)NCCCCCCNC(=O)[C@@H]1C[C@@H]2C(=O)N3CCC[C@H]3C(=O)N2[C@@H]1c1cccc(OCCO)c1	-0.306
C=CCN1C(=O)[C@]2(CC=C)N=C(c3ccc(OCCCO)cc3)O[C@@H]2c2ccccc21	-0.956
Cc1ccc(S[C@]2(C(=O)NC3CC3)CC(=O)N(Cc3ccccc3Cl)[C@@H]2c2ccc(CO)cc2I)cc1	-0.451
COCCOC(=O)N1C(=O)[C@@]2(c3cc(C#CC4(O)CCCCCC4)ccc31)[C@H](C(=O)N1CCCCCCC1)[C@H]1C(=O)O[C@H](c3ccccc3)[C@H](c3ccccc3)N1[C@@H]2c1ccc(OCCO)cc1	0.304
O=C1C2C=CC(C(O)c3cc(C(F)(F)F)cc(C(F)(F)F)c3)N(Nc3ccc([N+](=O)[O-])cc3)C2C(=O)N1c1ccccc1 (centres undefined)	-0.566
COC1(C)CN(Cc2ccccc2Br)[C@H](/C=C/c2ccccc2)[C@H](Cc2ccccc2)O1 (some centres undefined)	1.1
COc1cc(CO)cc(I)c1O[C@H]1C=C(C(=O)NCCO)C[C@@H](NCc2ccccc2F)[C@@H]1O	-0.0271
C=CCOC(=O)[C@@H]1[C@H]2C(=O)O[C@H](c3ccccc3)[C@H](c3ccccc3)N2[C@H](c2ccc(OCCOC(=O)[C@H]3C[C@H]4C(=O)N[C@@H](CC(C)C)C(=O)N4[C@H]3c3ccc(O)cc3)cc2)[C@@]12C(=O)Nc1ccc(I)cc12	0.206
C=C[C@H](COC(C)=O)NS(=O)(=O)c1ccc(Br)cc1	0.266

Data origin, for the record: PubChem BioAssay
